// data source = ChEMBL document CHEMBL3832033

experiment: Pharmacokinetic parameters for Clarithromycin evaluated after single oral administration of 1000 or 2 x 500 mg Clarithromycin extended-release tablets to 34 adult volunteers under fasting and feeding conditions.; format: ADME, organism-based; parameters: dose 1000 mg, dose 2 x 500, route oral; conditions: human, in vivo; dietary status Fasting, dose 1000 mg, dosed compound id 21, dosed compound name CLARITHROMYCIN, gender male and female, regimen Single dose, route oral, tissue Plasma
metric name: Tmax
Answer by giving the amount and then stating its unit.

**Query** Identify measured Tmax associated with CC[C@H]1OC(=O)[C@H](C)[C@@H](O[C@H]2C[C@@](C)(OC)[C@@H](O)[C@H](C)O2)[C@H](C)[C@@H](O[C@@H]2O[C@H](C)C[C@H](N(C)C)[C@H]2O)[C@](C)(OC)C[C@@H](C)C(=O)[C@H](C)[C@@H](O)[C@]1(C)O [CLARITHROMYCIN]
**Result** 11 h
